The values you see were collected from ChEMBL document CHEMBL4138300.

experiment: Apparent clearance during terminal phase in ICR mouse at 10 mg/kg administered via oral gavage; assay type: ADME, organism-based; conditions: in vivo, read-out: CLz/F
Recorded Metric: CL/F
Report as: number unit

Return CL/F (reported value) for this compound: CCc1c(N(CC)C2CCOCC2)cc2oc(C3CCN(C(C)C)CC3)cc2c1C(=O)NCc1c(C)cc(C)[nH]c1=O
12.1 L/h/kg

###

For each record, write down the corresponding half-life.
assay: Half life in rat liver microsomes; type: ADME, microsome

Given the compound CCc1c(N(CC)C2CCOCC2)cc2oc(C3CCN(C(C)C)CC3)cc2c1C(=O)NCc1c(C)cc(C)[nH]c1=O , write its reported half-life.
> 30 min

Determine its reported half-life: CCc1c(N(CC)C2CCOCC2)cc2oc(C3CCN(C)CC3)cc2c1C(=O)NCc1c(C)cc(C)[nH]c1=O
> 60 min

###

assay: Half life in ICR mouse at 10 mg/kg administered via oral gavage; assay type: ADME, organism-based; details: in vivo
Recorded Metric: half-life (h)
The reply should be a number in h, with the unit left off.

Provide half-life value for the following compound: CCc1c(N(CC)C2CCOCC2)cc2oc(C3CCN(C(C)C)CC3)cc2c1C(=O)NCc1c(C)cc(C)[nH]c1=O
1.3

###

test: Mean residence time (0 to infinity) in ICR mouse at 10 mg/kg administered via oral gavage; type: ADME, organism-based; conditions: in vivo
Recorded Metric: MRT inf (h)
Write it as a number; the unit h goes unstated.

Please report the measured MRT inf for CCc1c(N(CC)C2CCOCC2)cc2oc(C3CCN(C(C)C)CC3)cc2c1C(=O)NCc1c(C)cc(C)[nH]c1=O
2.7

###

test: Protein binding in rat plasma; assay type: ADME, cell-free; settings: read-out: PPB (converted)
Recorded Metric: fraction unbound

For the compound CCc1c(N(CC)C2CCOCC2)cc2oc(C3CCN(C(C)C)CC3)cc2c1C(=O)NCc1c(C)cc(C)[nH]c1=O , report fraction unbound.
0.06

###

test: Half life in Sprague-Dawley rat at 5 mg/kg administered via oral gavage; format: ADME, organism-based; conditions: in vivo
Recorded Metric: half-life

Return value of half-life for input CCc1c(N(CC)C2CCOCC2)cc2oc(C3CCN(C(C)C)CC3)cc2c1C(=O)NCc1c(C)cc(C)[nH]c1=O , no commentary.
1 h

###

molecular target: Histone-lysine N-methyltransferase EZH2 (Homo sapiens); test: Inhibition of EZH2 in human Pfeiffer cells assessed as reduction in H3K27 trimethylation after 3 days by Western blot analysis; format: cell-based
Sequence (Q15910 whole entry): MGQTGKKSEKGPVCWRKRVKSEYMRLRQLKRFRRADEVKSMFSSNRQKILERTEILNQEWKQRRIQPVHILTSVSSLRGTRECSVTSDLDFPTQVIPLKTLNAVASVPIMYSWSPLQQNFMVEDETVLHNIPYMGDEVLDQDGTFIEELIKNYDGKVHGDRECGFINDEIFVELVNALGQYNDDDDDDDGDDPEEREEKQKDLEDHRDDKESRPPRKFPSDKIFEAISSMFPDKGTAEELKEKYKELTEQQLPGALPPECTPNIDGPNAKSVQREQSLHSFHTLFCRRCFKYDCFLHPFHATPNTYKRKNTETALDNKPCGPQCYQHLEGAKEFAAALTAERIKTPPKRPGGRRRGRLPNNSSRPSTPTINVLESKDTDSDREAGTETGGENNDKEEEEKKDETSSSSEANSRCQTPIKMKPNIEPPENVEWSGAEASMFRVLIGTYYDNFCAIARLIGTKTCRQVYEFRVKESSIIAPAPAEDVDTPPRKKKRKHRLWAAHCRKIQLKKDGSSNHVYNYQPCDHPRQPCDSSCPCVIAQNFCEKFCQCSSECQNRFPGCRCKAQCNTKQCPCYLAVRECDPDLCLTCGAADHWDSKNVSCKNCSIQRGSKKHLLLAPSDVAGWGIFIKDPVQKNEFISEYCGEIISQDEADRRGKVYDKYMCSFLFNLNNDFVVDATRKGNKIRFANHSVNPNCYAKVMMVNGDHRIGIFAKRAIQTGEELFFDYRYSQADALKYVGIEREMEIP
Recorded Metric: pIC50
pIC50 is a log-scale quantity: -log10 of the concentration expressed in molar.

Supply pIC50 value. Item: CCc1c(N(CC)C2CCOCC2)cc2oc(C3CCN(C(C)C)CC3)cc2c1C(=O)NCc1c(C)cc(C)[nH]c1=O
8.10

###

test: Mean residence time (0 to infinity) in Sprague-Dawley rat at 5 mg/kg administered via oral gavage; assay type: ADME, organism-based; details: in vivo
Recorded Metric: MRT inf

Entry CCc1c(N(CC)C2CCOCC2)cc2oc(C3CCN(C(C)C)CC3)cc2c1C(=O)NCc1c(C)cc(C)[nH]c1=O needs its MRT inf filled in; supply it.
3 h

###

biological target: EZH2 (Homo sapiens); assay: Inhibition of human N-terminal His-tagged EZH2/flag-tagged EED/SUZ12/AEBP2/RBAP48 A677G mutant (2 to end residues) expressed in baculovirus infected Sf9 insect cells using histone H3 (1 to 50 residues)-GGK as substrate after 2 hrs in presence of SAM by fluorescence assay
Field: log10 of IC50. Provide a value for each of the compounds that follow.
# log10 transformed; quantity=IC50; unit=nM

Determine reported log10 of IC50 for CCc1c(N(CC)C2CCOCC2)cc2oc(C3CCN(C)CC3)cc2c1C(=O)NCc1c(C)cc(C)[nH]c1=O ; test system: EZH2 (Homo sapiens).
0.79

Answer briefly: log10 of IC50 recorded on EZH2 (Homo sapiens) for CCc1c(N(CC)C2CCOCC2)cc2oc(CN3CCOCC3)cc2c1C(=O)NCc1c(C)cc(C)[nH]c1=O
0.66

Please indicate recorded log10 of IC50 of CCN(c1cc2oc(F)cc2c(C(=O)NCc2c(OC)cc(C)[nH]c2=O)c1C)C1CCOCC1 measured with EZH2 (Homo sapiens).
0.61

Provide the reported log10 of IC50 (system: EZH2 (Homo sapiens)) for CCc1c(N(CC)C2CCOCC2)cc2oc(CN3CCOCC3)cc2c1C(=O)NCc1c(OC)cc(C)[nH]c1=O
0.89

Please report the measured log10 of IC50 for CCN(c1cc2occc2c(C(=O)NCc2c(C(F)(F)F)cc(C)[nH]c2=O)c1C)C1CCOCC1 tested on EZH2 (Homo sapiens).
0.66

Retrieve log10 of IC50 on EZH2 (Homo sapiens); query CCN(c1cc2oc(C3CC3)cc2c(C(=O)NCc2c(OC)cc(C)[nH]c2=O)c1C)C1CCOCC1
-0.30

Identify measured log10 of IC50 obtained with EZH2 (Homo sapiens) for CCc1c(N(CC)C2CCOCC2)cc2oc(CN3CCCCC3)cc2c1C(=O)NCc1c(OC)cc(C)[nH]c1=O .
0.81

Quote log10 of IC50 with test system EZH2 (Homo sapiens) for CCN(c1cc2occc2c(C(=O)NCc2c(OC)cc(C)[nH]c2=O)c1C)C1CCOCC1
0.60

Report measured log10 of IC50 on EZH2 (Homo sapiens); entry: CCN(c1cc2oc(C#N)cc2c(C(=O)NCc2c(OC)cc(C)[nH]c2=O)c1C)C1CCOCC1
-0.10

Enter recorded log10 of IC50 with EZH2 (Homo sapiens) for CCN(c1cc2occ(C)c2c(C(=O)NCc2c(OC)cc(C)[nH]c2=O)c1C)C1CCOCC1 here.
0.77

Look up EZH2 (Homo sapiens) data: log10 of IC50 of CCN(c1cc2oc(C)cc2c(C(=O)NCc2c(C)cc(C)[nH]c2=O)c1C)C1CCOCC1 , then report it.
0.58

With EZH2 (Homo sapiens) as the test system, provide measured log10 of IC50 for this compound: CCc1cc(C)[nH]c(=O)c1CNC(=O)c1c(C)c(N(CC)C2CCOCC2)cc2occc12
-0.22

Fill in: log10 of IC50 on EZH2 (Homo sapiens), entry CCN(c1cc2oc(C)cc2c(C(=O)NCc2c(OC)cc(C)[nH]c2=O)c1C)C1CCOCC1
0.46

# assay system EZH2 (Homo sapiens): give log10 of IC50 of CCN(c1cc2occc2c(C(=O)NCc2c(OC)cc(C)[nH]c2=O)c1C(F)(F)F)C1CCOCC1
3.30

Consider the compound CCN(c1cc2sccc2c(C(=O)NCc2c(C)cc(C)[nH]c2=O)c1C)C1CCOCC1 tested on EZH2 (Homo sapiens); state its log10 of IC50.
0.78

GET log10 of IC50 | system: EZH2 (Homo sapiens) | item: CCN(c1cc2occc2c(C(=O)NCc2c(C)cc(C)[nH]c2=O)c1C)C1CCOCC1
0.60

Supply log10 of IC50 measured with EZH2 (Homo sapiens) for CCN(c1cc(C(=O)NCc2c(OC)cc(C)[nH]c2=O)c2ccoc2c1)C1CCOCC1 .
2.52

Report value only: log10 of IC50, EZH2 (Homo sapiens), CCc1c(N(CC)C2CCOCC2)cc2occc2c1C(=O)NCc1c(OC)cc(C)[nH]c1=O
0.52

###

experiment: Protein binding in mouse plasma; type: ADME, cell-free; conditions: read-out: PPB (converted)
Recorded Metric: fraction unbound
Keep the answer to the number alone.

Give a short answer stating reported fraction unbound for CCc1c(N(CC)C2CCOCC2)cc2oc(C3CCN(C(C)C)CC3)cc2c1C(=O)NCc1c(C)cc(C)[nH]c1=O .
0.073

###

test: Apparent clearance during terminal phase in Sprague-Dawley rat at 5 mg/kg administered via oral gavage; assay type: ADME, organism-based; settings: in vivo, read-out: CLz/F
Recorded Metric: CL/F

Give the reported CL/F for this compound. CCc1c(N(CC)C2CCOCC2)cc2oc(C3CCN(C(C)C)CC3)cc2c1C(=O)NCc1c(C)cc(C)[nH]c1=O
17.2 L/h/kg

###

molecular target: EZH2 (Homo sapiens); assay: Inhibition of human N-terminal His-tagged EZH2/flag-tagged EED/SUZ12/AEBP2/RBAP48 A677G mutant (2 to end residues) expressed in baculovirus infected Sf9 insect cells using histone H3 (1 to 50 residues)-GGK as substrate after 2 hrs in presence of SAM by fluorescence assay
Would you kindly list pIC50 for each of these compounds?
Entry type: numeric. Quantity: pIC50, the -log10 of concentration in molar units.

Give the value of pIC50 reported for the following: CCN(c1cc2occc2c(C(=O)NCc2ccc(C)[nH]c2=O)c1Cl)C1CCOCC1
8.19

Entry CCN(c1cc2oc(C(F)(F)F)cc2c(C(=O)NCc2c(OC)cc(C)[nH]c2=O)c1C)C1CCOCC1 needs its pIC50 filled in; supply it.
8.57

Please look at this compound and report its pIC50: CCN(c1cc2oc(Cl)cc2c(C(=O)NCc2c(OC)cc(C)[nH]c2=O)c1C)C1CCOCC1
9.40

Give the reported pIC50 for this compound. CCc1c(N(CC)C2CCOCC2)cc2oc(CN3CCN(C)CC3)cc2c1C(=O)NCc1c(OC)cc(C)[nH]c1=O
10.00
